- Target or system: T1, Vtc4* (Vtc4(1–487), SPX and TTM domains of Vtc4 without the transmembrane domain) (S. cerevisiae, UniProt P47075 1-487, RED-tris-NTA 2nd generation dye on the His tag (MST); RED-NHS 2nd generation dye (MST with TTM2))
- T1 construct: Vtc4, catalytic subunit of the vacuolar transporter chaperone (VTC) complex, yeast, residues 1-487 (SPX and TTM domains, no transmembrane domain); pET27b(+) construct from GenScript with a C-terminal TEV site and His10 tag; The dye is absent in NMR and cross-linking; also called Vtc4ΔTM; source: E. coli Lemo21(DE3) BL21, purified (HisTrap, Superdex 200); not shown: His10, C-terminal, kept
- T1 sequence (P47075 1-487): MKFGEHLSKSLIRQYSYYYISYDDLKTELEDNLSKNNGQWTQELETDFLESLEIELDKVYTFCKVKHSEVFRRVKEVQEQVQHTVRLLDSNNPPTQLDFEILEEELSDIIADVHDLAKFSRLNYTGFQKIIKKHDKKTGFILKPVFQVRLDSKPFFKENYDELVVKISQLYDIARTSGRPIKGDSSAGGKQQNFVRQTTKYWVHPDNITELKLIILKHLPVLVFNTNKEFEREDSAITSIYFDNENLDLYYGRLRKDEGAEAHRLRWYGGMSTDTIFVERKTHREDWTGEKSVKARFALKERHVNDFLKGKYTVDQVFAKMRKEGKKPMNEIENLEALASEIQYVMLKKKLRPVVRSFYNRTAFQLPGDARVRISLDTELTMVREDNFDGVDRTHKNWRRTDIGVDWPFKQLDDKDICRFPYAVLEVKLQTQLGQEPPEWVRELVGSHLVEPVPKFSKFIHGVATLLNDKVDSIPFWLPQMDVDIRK
- Protocol details: MST; His-tagged Vtc4* or TTM4 labelled with RED-tris-NTA 2nd generation dye, titrated with Vtc2* or SPX2 proteins; MST buffer 15 mM HEPES pH 7.0, 50 mM NaCl, 2 mM DTT; Monolith NT.115, 100 % laser power
- Condition parameters: both partners purified

Binder: SPX2 S189A (domain or fragment, S. cerevisiae, UniProt P43585 1-201, looked up, Vtc2, S. cerevisiae, residues 1-201 (SPX2) with a point mutation in helix α7; also called serine 189 to alanine; source: E. coli Lemo21(DE3) BL21, purified; not shown: His5, C-terminal, cleaved) MLFGVKLANEVYPPWKGSYINYEGLKKFLKEDSVKDGSNDKKARWDDSDESKFVEELDKELEKVYGFQLKKYNNLMERLSHLEKQTDTEAAIKALDADAFQRVLEELLSESTELDNFKRLNFTGFAKIVKKHDKLYPKYPSVKSLLEVRLKELPSHSEEYSPLLYRISFLYNILRSNFNTASEPLASAAKFSSIVSNDIDM
binding result: binds
//
Binder: SPX2∆α7 (Vtc2(1–182)) (domain or fragment, S. cerevisiae, UniProt P43585 1-182, looked up, Vtc2, S. cerevisiae, residues 1-182 (SPX domain without helix α7 and the C-terminal linker); source: E. coli Lemo21(DE3) BL21, purified (as SPX2, cation exchange in 20 mM MES pH 6.0); not shown: His5, C-terminal, cleaved) MLFGVKLANEVYPPWKGSYINYEGLKKFLKEDSVKDGSNDKKARWDDSDESKFVEELDKELEKVYGFQLKKYNNLMERLSHLEKQTDTEAAIKALDADAFQRVLEELLSESTELDNFKRLNFTGFAKIVKKHDKLYPKYPSVKSLLEVRLKELPSHSEEYSPLLYRISFLYNILRSNFNTAS
binding result: binds
//
Binder: SPX2 S187A (domain or fragment, S. cerevisiae, UniProt P43585 1-201, looked up, Vtc2, S. cerevisiae, residues 1-201 (SPX2) with a point mutation in helix α7; also called serine 187 to alanine; source: E. coli Lemo21(DE3) BL21, purified; not shown: His5, C-terminal, cleaved) MLFGVKLANEVYPPWKGSYINYEGLKKFLKEDSVKDGSNDKKARWDDSDESKFVEELDKELEKVYGFQLKKYNNLMERLSHLEKQTDTEAAIKALDADAFQRVLEELLSESTELDNFKRLNFTGFAKIVKKHDKLYPKYPSVKSLLEVRLKELPSHSEEYSPLLYRISFLYNILRSNFNTASEPLAAASKFSSIVSNDIDM
binding result: binds
